assay: yeast display, Sf9 membrane polyspecificity reagent, FACS + sequencing; frameworks hold sequencing errors

primary.sequence	polyreactivity (PSR sort gate)
QVQLVESGGGLVQAGGSLRLTCAASGSTFRYYVMGWYRQAPGKERELVAGISYRGGTTYYADSVKGRFTISRDNAKNTVYLQMNSLKPEDTAVYYCNAETAAAQASYDRLYVLLDYWGQGTQVTVSS	low polyreactivity
QVQLVESGGGLVQAGGSLRLSCAASGSIFFSYAMGWYRQAPGKEREGGSTDYADSVKGRFTISRDNAKNTVYLQMNSLKPEDTAVYYCAASVRGIRYDYWGQGTQVTVSS	low polyreactivity
QLQIVESGGGLVQAGGSLRISCAASVFTFCKYAMGWYRPAPGKERELVAAISVSGGRTYSADSVKGRFTISRDNAKNTVYLQMNSLKPEDTEVYYCNATQWRPYVGGEYWGQGTQVTVSS	high polyreactivity
QVQLVESGGGLVQAGGSLRLSCAASGRTFGWYAMGWYRQAPGKERELVAAINNSGDITYYADSVKGRFTISRDNAKNTVYVQMNSLKPEDTAVYYCAATAGYYGYPSEYDYWGQGTQVTVSS	low polyreactivity
QVQLVESGGGLVQAGGSLRLSCAASGITIVNYVMGWYRQAPGKERELVAAISIGGGTYYADSVKGRFTISRDNEKNTVYLQMNSLKPEDTAVYYCNASYGGLSFYIGVYVTGYDYWGQGTQVTVSS	low polyreactivity
QVQLVESGGGLVQAGGSLRLSCAASGITFGYYAMGWYRQAPGKERELVAAISNSGRTYYADSVKGRFTISRDNAKNTVYLQMNILKPEDTAVYYCAAEDAYYDFYYWGQGTKVTVSS	low polyreactivity
QVQLVESGGGLFQAGGSLRLSCAASGFISSGNTMAWYRQAPGKERELVAAISGSGGRTYYADSVKGRFTISRDNAKNTVYLQMNSLKPEDTAVYYCATPLQQLYGYWGQGTQVTVSS	low polyreactivity
QVQLVETGGGLVQAGGTLRLSCAASGRTFSRNAMGCDRPAPGKERELVAAITSGGGTYYADSVKGRFTISRDNAKNTVYLQMNSLKPEDTAVYYCNKKTSAGRVDYWGQGTQVTVSS	high polyreactivity
QVQLVESGGGLVQAGGSLRLSCAASGGTFSKNAMGWYRQAPGKERELVADIRSGGSTYYADSVKGRFTISRDNAKNTVYLQMNSLKPEDTAVYYCNADGDVNEYDYWGQGTQVTVSS	low polyreactivity
QVQLVESCGGFVQAGGSLSLSCAASGSIYGRYGMGWYIQAPGKERELVAAITSGTRTNYADSVKGRFTISRDNAKNTVYLQMKSLKPEDTAVYYCYALRLRGNYEYGYWGQGTQVTVSS	low polyreactivity
QVQLQESGGGLMQAGGNLRLSCAASGYISTHYDMDWYRPAPGKERELVARIDDGAITNYADSVKGRFTISRDNAKNTVYLQMNSLKPEDTAVYYCAVYSGDDYYHDYWGQGTQVTVSS	low polyreactivity

###

experiment: yeast display, Sf9 membrane polyspecificity reagent, FACS + sequencing; frameworks hold sequencing errors

primary.sequence	polyreactivity (PSR sort gate)
QVQLVESGGGLVQAGGSLRLSCAASGSTFGVYAMGWYRQAPGKERELVAAISGSGGSTYYADSVKGRFTISRDNAKNTVYLQMNSLKPEDTAVYYCAAKVRHYYSASNYYYWGQGTQVTVSS	high polyreactivity
QVQLVESGGGLVQAGGSLRLSCAPSGGTFIYYAMGWYRQAPGKERELVAAISSGGSTYYADSVKGRFTISRDNAKNTVYLQMNSLKPEDTAVYYCAKRRAVQIVDLEYWRQGTQVTVSS	low polyreactivity
QVQLVESGGGLVQAGGSLRLSCASSGFTFWRNAMGWYRQAPGKERELVAAINWSGGSTYYADSVKGRFTISRDNAKNTVYLQMNSLKPEDTAVYYCAADLSSRGISQDDYWGQCTQVTVSS	high polyreactivity
QVQLVESGGGLVQAGGSLRLSCAASGRIFNVYAMGWYRQAPGKERELVAAIRRRGDRTYYADSVKGRFTISRDNAKNTVYLQMNSLKPEDTAVYYCAKSQSAKGGYDYWGQGTQVTVSS	high polyreactivity
QVQLVQSGGGLVQAGGSLRLSCAASGGTFQHNTMGWYRQAPGKEWQLVAAIRGSDGSTYYADSVKGRFTISRDNAKNTVYLQMNSLKPEDTAVYYCNRAYTASYIPGVGFWGQGTQVTVSS	high polyreactivity
QVHLEESGGGLVQAGGSLRLSSAASGFTFRSNAMGWYRQAPGKERELVAAITSRGGSTYYADSVKGRFTISRDYAINTVYLQMNSLKPEDTAVYYGAADGRSRKFDYWGQGTQVTVSS	high polyreactivity
QVQLVESGGGLVQAGGSLRLSCAASGFIFGGNAMGWYRPAPGKERELVAAISRRGGNTYYADSVKGRFTISRDNAKITVYLQMNSLKPEDTAVYYCATGTSYWYLWAYDYWGQGTQVTVSS	high polyreactivity
QVQLVESGGGLVQAGGSLRLTCAASGLILYWYAMGLYRQAPGTEMELVAAISISGGSTYYADSVKGRFTISRDNAKNTVYLQMNSLKPEDTAVYYCAAVYFYSWEGDGDYWGQGTQVTVSS	low polyreactivity
QVQLVESGGGLVQAGGSLRLSCAASGRTFDSYTMGWYRQAPGKERELVADITFTGGSTYYADSVKGRFTISRDNAKNTVYLQMNSLKPEDTAVYYCNADREYKWYFRYDYWGQGTQVTVSS	low polyreactivity
QVQLVESGGGLVQAGGSLRLSCAASGRIFVYYAMGWYRQAPGKERELVAAMNAGGSTNYADSVKGRFTISRDNAKNNVYLQMYSLKPEDTAVYYCAAVRRSRYSYRGYYWGQGTQVTVSS	high polyreactivity
QVQLVESGGGLVQAGGRLRLSWAASGSTFFGNAMGWYRQAPGKERELVAVITKGGGSTYYADSVKGRFTISRDNAKNTVYLQMNSLKPEDTAVYYCAKTYTSGYHRRYDYWGQGTQVTVSS	low polyreactivity
